target: hERG potassium channel (Homo sapiens); construct: expressed in transfected cells; host or cells: CHO (Chinese Hamster Ovary); test: hERG screening assay (PatchXpress automated patch clamp, CHO cell line); assay type: cell-based; conditions: 1 μm test compound; CHO cells
Sequence (Q12809 whole entry): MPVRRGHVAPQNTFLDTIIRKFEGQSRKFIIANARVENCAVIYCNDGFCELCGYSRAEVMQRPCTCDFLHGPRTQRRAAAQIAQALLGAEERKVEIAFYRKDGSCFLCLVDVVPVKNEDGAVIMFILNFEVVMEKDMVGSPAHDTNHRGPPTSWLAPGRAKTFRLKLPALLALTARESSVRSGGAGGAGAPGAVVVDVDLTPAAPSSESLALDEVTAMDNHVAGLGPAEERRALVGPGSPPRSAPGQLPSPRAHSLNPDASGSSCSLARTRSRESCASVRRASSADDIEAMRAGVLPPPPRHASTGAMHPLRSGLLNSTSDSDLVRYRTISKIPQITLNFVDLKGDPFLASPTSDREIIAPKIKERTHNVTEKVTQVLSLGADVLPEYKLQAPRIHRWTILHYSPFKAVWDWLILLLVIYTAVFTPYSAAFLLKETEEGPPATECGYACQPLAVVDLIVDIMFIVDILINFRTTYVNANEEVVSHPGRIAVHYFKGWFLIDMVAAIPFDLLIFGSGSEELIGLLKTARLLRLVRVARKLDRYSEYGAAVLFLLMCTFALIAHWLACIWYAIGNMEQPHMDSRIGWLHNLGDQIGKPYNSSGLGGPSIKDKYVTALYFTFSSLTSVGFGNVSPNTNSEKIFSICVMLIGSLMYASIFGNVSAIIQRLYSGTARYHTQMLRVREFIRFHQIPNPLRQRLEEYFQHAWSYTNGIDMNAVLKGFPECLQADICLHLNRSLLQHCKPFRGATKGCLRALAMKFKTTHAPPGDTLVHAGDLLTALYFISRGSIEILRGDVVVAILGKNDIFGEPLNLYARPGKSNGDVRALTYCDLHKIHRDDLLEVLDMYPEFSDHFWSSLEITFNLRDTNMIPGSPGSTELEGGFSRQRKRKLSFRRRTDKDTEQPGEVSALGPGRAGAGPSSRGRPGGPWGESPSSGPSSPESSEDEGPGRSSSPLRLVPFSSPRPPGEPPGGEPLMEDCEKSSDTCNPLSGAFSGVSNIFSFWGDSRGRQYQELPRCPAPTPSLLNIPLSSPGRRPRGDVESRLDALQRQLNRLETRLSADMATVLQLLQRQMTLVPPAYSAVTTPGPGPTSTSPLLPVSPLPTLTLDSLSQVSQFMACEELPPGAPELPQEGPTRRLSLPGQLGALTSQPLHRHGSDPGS
Would you mind telling me the reported hERG Patch Clamp hERG % blk (1 μm test cmpd) of each entry?
A number alone suffices; assume %.

Query Cc1nc2ccc(Cl)cc2c(-c2ccccc2)c1-c1nnc(Cc2ccc(Cl)cc2)o1 [PT-005] yields hERG Patch Clamp hERG % blk (1 μm test cmpd) of 10.5

Lab book: hERG Patch Clamp hERG % blk (1 μm test cmpd) of Cc1nc2ccc(Cl)cc2c(-c2ccccc2)c1C(=O)N1CCC(c2ccc(C(N)=O)cc2)CC1 [PT-017] noted as 28.5

Recorded hERG Patch Clamp hERG % blk (1 μm test cmpd) (compound Cc1nc2ccc(Cl)cc2c(-c2ccccc2)c1C(=O)OC(c1ccccc1)C1CC1 (stereo not drawn) [PT-012] ): 10.5
